The values you see were collected from patent US8685970B2.

# Target: SIRT1 (Homo sapiens, UniProt Q96EB6)
# Sequence (Q96EB6 whole entry): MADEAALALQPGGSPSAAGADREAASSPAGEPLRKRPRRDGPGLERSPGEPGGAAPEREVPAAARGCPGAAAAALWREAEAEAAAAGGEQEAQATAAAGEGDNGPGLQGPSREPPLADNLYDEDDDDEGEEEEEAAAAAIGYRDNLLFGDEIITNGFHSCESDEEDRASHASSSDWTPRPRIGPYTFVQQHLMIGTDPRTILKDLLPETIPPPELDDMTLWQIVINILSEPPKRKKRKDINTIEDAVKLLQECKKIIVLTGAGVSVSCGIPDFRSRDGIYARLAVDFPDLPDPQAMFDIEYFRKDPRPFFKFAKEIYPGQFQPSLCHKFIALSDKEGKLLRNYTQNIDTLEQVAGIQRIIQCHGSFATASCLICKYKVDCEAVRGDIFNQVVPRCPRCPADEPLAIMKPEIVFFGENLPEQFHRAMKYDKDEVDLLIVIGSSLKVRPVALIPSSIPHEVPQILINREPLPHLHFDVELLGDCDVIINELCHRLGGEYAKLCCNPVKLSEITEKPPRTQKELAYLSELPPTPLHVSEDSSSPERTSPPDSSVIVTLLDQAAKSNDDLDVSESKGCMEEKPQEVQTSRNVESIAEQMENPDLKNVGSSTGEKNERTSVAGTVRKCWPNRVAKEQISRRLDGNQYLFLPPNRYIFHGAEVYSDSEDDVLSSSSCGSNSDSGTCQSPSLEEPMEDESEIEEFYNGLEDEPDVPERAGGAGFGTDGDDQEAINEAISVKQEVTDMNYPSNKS
# Assay Summary: Mass spectrometry based SIRT1 deacetylation assay (activation)
# Format: biochemical
# Measurement Context: 10 nM SIRT1, 0.5 μM peptide substrate, 120 μM βNAD+, 25 min at 25° C.
Attribute Measured: EC1.5 (concentration of test compound that results in 150% activation of SIRT1)

Sample answers from the record:
[in] Kindly state the measured EC1.5 (concentration of test compound that results in 150% activation of SIRT1) obtained for O=C(Nc1cccc(N2CCCC2)n1)c1cccc2ccc(-c3cccc(C(F)(F)F)c3)nc12 with SIRT1 (Homo sapiens, UniProt Q96EB6).
[out] A (EC1.5<1.0 uM)

[in] Kindly state the measured EC1.5 (concentration of test compound that results in 150% activation of SIRT1) obtained for O=C(Nc1cnccn1)c1cccc2ccc(-c3cccc(OC(F)(F)F)c3)nc12 with SIRT1 (Homo sapiens, UniProt Q96EB6).
[out] A (EC1.5<1.0 uM)

[in] Kindly state the measured EC1.5 (concentration of test compound that results in 150% activation of SIRT1) obtained for O=C(Nc1ccncn1)c1cccc2ccc(-c3ccc(C(F)(F)F)cc3)nc12 with SIRT1 (Homo sapiens, UniProt Q96EB6).
[out] C (EC1.5>25 uM)

[in] Kindly state the measured EC1.5 (concentration of test compound that results in 150% activation of SIRT1) obtained for O=C(Nc1cccc(N2CCOCC2)n1)c1cccc2ccc(-c3cccc(C(F)(F)F)c3)nc12 with SIRT1 (Homo sapiens, UniProt Q96EB6).
[out] A (EC1.5<1.0 uM)

[in] Kindly state the measured EC1.5 (concentration of test compound that results in 150% activation of SIRT1) obtained for O=C(Nc1cccc(OC[C@@H](O)CO)c1)c1cccc2ccc(-c3cccc(C(F)(F)F)c3)nc12 with SIRT1 (Homo sapiens, UniProt Q96EB6).
[out] A (EC1.5<1.0 uM)

[in] Kindly state the measured EC1.5 (concentration of test compound that results in 150% activation of SIRT1) obtained for FC(F)(F)c1cccc(-c2ccc3cccc(NCc4cccnc4)c3n2)c1 with SIRT1 (Homo sapiens, UniProt Q96EB6).
[out] C (EC1.5>25 uM)

[in] Kindly state the measured EC1.5 (concentration of test compound that results in 150% activation of SIRT1) obtained for O=C(Nc1cccnn1)c1cccc2ccc(-c3cccnc3)nc12 with SIRT1 (Homo sapiens, UniProt Q96EB6).
[out] A (EC1.5<1.0 uM)

Kindly consider the entry below.
[in] Kindly state the measured EC1.5 (concentration of test compound that results in 150% activation of SIRT1) obtained for c1cncc(CNc2cccc3ccc(-c4cccc(N5CCOCC5)c4)nc23)c1 with SIRT1 (Homo sapiens, UniProt Q96EB6).
[out] C (EC1.5>25 uM)

---

# Target: SIRT1 (Homo sapiens)
# Assay Summary: Mass spectrometry based SIRT1 deacetylation assay (activation)
# Type: biochemical
# Measurement Context: 10 nM SIRT1, 0.5 μM peptide substrate, 120 μM βNAD+, 25 min at 25° C.
# Excerpt: A mass spectrometry based assay was used to identify modulators of SIRT1 activity. The mass spectrometry based assay utilizes a peptide having 20 amino acid residues as follows: Ac-EE-K (biotin)-GQSTSSHSK (Ac)N1eSTEG-K(5TMR)-EE-NH2 (SEQ ID NO: 1) wherein K(Ac) is an acetylated lysine residue and Nle is a norleucine. The peptide is labeled with the fluorophore 5TMR (excitation 540 nm/emission 580 nm) at the C-terminus. The sequence of the peptide substrate is based on p53 with several modifications. […]
Attribute Measured: EC1.5 (concentration of test compound that results in 150% activation of SIRT1)

Sample answers from the record:
[in] Kindly state the measured EC1.5 (concentration of test compound that results in 150% activation of SIRT1) obtained for O=C(NC1CCNCC1)c1cccc2ccc(-c3cccc(C(F)(F)F)c3)nc12 [Compound 71] with SIRT1 (Homo sapiens).
[out] B (EC1.5 1-25 uM)

[in] Kindly state the measured EC1.5 (concentration of test compound that results in 150% activation of SIRT1) obtained for O=C(Nc1cccc2ccc(-c3cccc(OC(F)(F)F)c3)nc12)c1cnccn1 [Compound 8] with SIRT1 (Homo sapiens).
[out] A (EC1.5<1.0 uM)

[in] Kindly state the measured EC1.5 (concentration of test compound that results in 150% activation of SIRT1) obtained for O=C(Nc1cccc(CN2CCOCC2)n1)c1cccc2ccc(-c3ccnc(C(F)F)c3)nc12 [Compound 306] with SIRT1 (Homo sapiens).
[out] A (EC1.5<1.0 uM)

[in] Kindly state the measured EC1.5 (concentration of test compound that results in 150% activation of SIRT1) obtained for O=C(NCc1cccnc1)c1cccc2ccc(-c3cccc(C(F)(F)F)c3)nc12 [Compound 36] with SIRT1 (Homo sapiens).
[out] C (EC1.5>25 uM)

[in] Kindly state the measured EC1.5 (concentration of test compound that results in 150% activation of SIRT1) obtained for O=C(Nc1nc2ccccc2s1)c1cccc2ccc(-c3cccnc3)nc12 [Compound 233] with SIRT1 (Homo sapiens).
[out] B (EC1.5 1-25 uM)

Continuing:
[in] Kindly state the measured EC1.5 (concentration of test compound that results in 150% activation of SIRT1) obtained for CCOC(=O)c1csc(NC(=O)c2cccc3ccc(-c4cccc(C(F)(F)F)c4)nc23)n1 [Compound 91] with SIRT1 (Homo sapiens).
[out] A (EC1.5<1.0 uM)

[in] Kindly state the measured EC1.5 (concentration of test compound that results in 150% activation of SIRT1) obtained for Cn1ccc(C(=O)Nc2cccc3ccc(-c4cccnc4)nc23)n1 [Compound 293] with SIRT1 (Homo sapiens).
[out] A (EC1.5<1.0 uM)

[in] Kindly state the measured EC1.5 (concentration of test compound that results in 150% activation of SIRT1) obtained for CN1CCN(Cc2cccc(C(=O)Nc3cccc4ccc(-c5cccc(C(F)(F)F)c5)nc34)c2)CC1 [Compound 216] with SIRT1 (Homo sapiens).
[out] A (EC1.5<1.0 uM)

[in] Kindly state the measured EC1.5 (concentration of test compound that results in 150% activation of SIRT1) obtained for O=C(Nc1cccc2ccc(-c3ccncc3)nc12)c1cnccn1 [Compound 155] with SIRT1 (Homo sapiens).
[out] C (EC1.5>25 uM)

[in] Kindly state the measured EC1.5 (concentration of test compound that results in 150% activation of SIRT1) obtained for O=C(Nc1nccs1)c1cccc2ccc(-c3cccc(C(F)(F)F)c3)nc12 [Compound 13] with SIRT1 (Homo sapiens).
[out] A (EC1.5<1.0 uM)

[in] Kindly state the measured EC1.5 (concentration of test compound that results in 150% activation of SIRT1) obtained for O=C(Nc1cccc2ccc(-c3cncc(F)c3)nc12)c1cscn1 [Compound 199] with SIRT1 (Homo sapiens).
[out] C (EC1.5>25 uM)

[in] Kindly state the measured EC1.5 (concentration of test compound that results in 150% activation of SIRT1) obtained for O=C(Nc1ccc(CN2CCCC2)cn1)c1cccc2ccc(-c3cccc(C(F)F)c3)nc12 [Compound 302] with SIRT1 (Homo sapiens).
[out] A (EC1.5<1.0 uM)

[in] Kindly state the measured EC1.5 (concentration of test compound that results in 150% activation of SIRT1) obtained for N#Cc1cccc(-c2ccc3cccc(NC(=O)c4cscn4)c3n2)c1 [Compound 80] with SIRT1 (Homo sapiens).
[out] C (EC1.5>25 uM)

[in] Kindly state the measured EC1.5 (concentration of test compound that results in 150% activation of SIRT1) obtained for O=C(Nc1cccc(CN2CCCC2)n1)c1cccc2ccc(-c3cccc(C(F)F)c3)nc12 [Compound 288] with SIRT1 (Homo sapiens).
[out] A (EC1.5<1.0 uM)

---

# Target: SIRT1 (Homo sapiens)
# Assay Summary: Mass spectrometry based SIRT1 deacetylation assay (activation)
# Assay type: biochemical
# Measurement Context: 10 nM SIRT1, 0.5 μM peptide substrate, 120 μM βNAD+, 25 min at 25° C.
Attribute Measured: EC1.5 (concentration of test compound that results in 150% activation of SIRT1)

Sample answers from the record:
[in] Give the measured EC1.5 (concentration of test compound that results in 150% activation of SIRT1) of Cn1ccnc1C(=O)Nc1cccc2ccc(-c3cccc(C(F)(F)F)c3)nc12 [Compound 222] .
[out] A (EC1.5<1.0 uM)

[in] Give the measured EC1.5 (concentration of test compound that results in 150% activation of SIRT1) of Cc1cc(-c2ccc3cccc(C(=O)Nc4ccncn4)c3n2)no1 [Compound 70] .
[out] C (EC1.5>25 uM)

[in] Give the measured EC1.5 (concentration of test compound that results in 150% activation of SIRT1) of O=C(Nc1cccnc1)c1cccc2cnc(-c3cccc(C(F)(F)F)c3)nc12 [Compound 282] .
[out] C (EC1.5>25 uM)

[in] Give the measured EC1.5 (concentration of test compound that results in 150% activation of SIRT1) of O=C(Nc1nccs1)c1cccc2ncc(-c3cccc(C(F)(F)F)c3)nc12 [Compound 123] .
[out] C (EC1.5>25 uM)

[in] Give the measured EC1.5 (concentration of test compound that results in 150% activation of SIRT1) of O=C(Nc1ccc(F)cn1)c1cccc2ccc(-c3cccc(N4CCOCC4)c3)nc12 [Compound 277] .
[out] A (EC1.5<1.0 uM)

Continuing:
[in] Give the measured EC1.5 (concentration of test compound that results in 150% activation of SIRT1) of O=C(Nc1ccccn1)c1cccc2ccc(-c3cccnc3)nc12 [Compound 182] .
[out] A (EC1.5<1.0 uM)

[in] Give the measured EC1.5 (concentration of test compound that results in 150% activation of SIRT1) of O=C(Nc1cccc2ccc(-c3cccc(OC(F)(F)F)c3)nc12)c1cnc2ccccc2n1 [Compound 23] .
[out] C (EC1.5>25 uM)

[in] Give the measured EC1.5 (concentration of test compound that results in 150% activation of SIRT1) of O=C(Nc1cccc(OC[C@H](O)CO)c1)c1cccc2ccc(-c3cccc(C(F)(F)F)c3)nc12 [Compound 217] .
[out] A (EC1.5<1.0 uM)
